# MEASURED_TARGET: Cytochrome P450 26A1 (Homo sapiens)
# Sequence (O43174 whole entry): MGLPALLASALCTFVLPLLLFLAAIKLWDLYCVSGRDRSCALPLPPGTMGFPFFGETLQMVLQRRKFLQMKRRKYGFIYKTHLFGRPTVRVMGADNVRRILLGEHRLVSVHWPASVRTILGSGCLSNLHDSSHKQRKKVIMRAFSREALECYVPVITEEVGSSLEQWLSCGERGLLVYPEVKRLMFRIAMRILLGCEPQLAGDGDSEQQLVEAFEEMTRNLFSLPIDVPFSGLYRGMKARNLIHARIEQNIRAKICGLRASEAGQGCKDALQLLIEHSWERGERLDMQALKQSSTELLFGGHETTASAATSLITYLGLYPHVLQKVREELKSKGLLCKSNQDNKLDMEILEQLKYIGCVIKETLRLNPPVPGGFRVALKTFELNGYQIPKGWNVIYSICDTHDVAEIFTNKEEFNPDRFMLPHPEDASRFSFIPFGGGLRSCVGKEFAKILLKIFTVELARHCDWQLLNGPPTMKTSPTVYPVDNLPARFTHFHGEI
Just a reminder that ties go to Criterion not met: only IC50 strictly below 20 nM counts as Criterion met.

COC(=O)c1ccc(COc2ccc3cc(C(C(C)N(C)C)n4ccnc4)ccc3c2)cc1 (stereo in doubt; anti)    Criterion not met
CNC(=O)c1cccc(COc2ccc3cc(C(C(C)N(C)C)n4ccnc4)ccc3c2)c1 (stereo not drawn)    Criterion not met
CC(C(c1ccc2cc(OCC(=O)O)ccc2c1)n1ccnc1)N(C)C (stereo not drawn)    Criterion not met

Now for another entry.
q: Quick check: IC50 of COC(=O)c1cccc(COc2ccc3cc(C(C(C)N(C)C)n4ccnc4)ccc3c2)c1 (stereo in doubt; syn) under 20 nM?
a: Criterion met

###

Let's look at some compounds and their measured IC50.
# MEASURED_TARGET: UniProtKB O43174
# Sequence (O43174 whole entry): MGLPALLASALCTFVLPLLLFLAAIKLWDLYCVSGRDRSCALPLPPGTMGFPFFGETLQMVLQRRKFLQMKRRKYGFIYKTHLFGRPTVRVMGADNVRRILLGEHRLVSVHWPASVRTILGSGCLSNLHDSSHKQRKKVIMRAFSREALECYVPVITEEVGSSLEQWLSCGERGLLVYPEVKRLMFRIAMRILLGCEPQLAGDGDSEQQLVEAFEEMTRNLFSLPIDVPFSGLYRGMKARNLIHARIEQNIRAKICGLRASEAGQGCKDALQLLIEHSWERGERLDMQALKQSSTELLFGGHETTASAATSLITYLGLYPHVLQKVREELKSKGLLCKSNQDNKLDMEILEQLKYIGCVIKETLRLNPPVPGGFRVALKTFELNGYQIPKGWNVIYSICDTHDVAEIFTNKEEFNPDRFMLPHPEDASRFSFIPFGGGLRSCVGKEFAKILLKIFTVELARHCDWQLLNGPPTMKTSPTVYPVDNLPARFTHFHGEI

CC(C(c1ccc2cc(OCc3ccc(OCC(=O)O)cc3)ccc2c1)n1ccnc1)N(C)C (centres undefined)    8 nM
CC(C(c1ccc2cc(OCC(C)(C)C(N)=O)ccc2c1)n1ccnc1)N(C)C (centres undefined)    47 nM
CC(C(c1ccc2cc(OCc3ccc(CC(=O)O)cc3)ccc2c1)n1ccnc1)N(C)C (centres undefined)    25 nM

Consider the additional compound presented here.
q: Identify measured IC50 corresponding to CC(C(c1ccc2cc(OCc3ccc(C#N)cc3)ccc2c1)n1ccnc1)N(C)C (stereo in doubt; syn)
a: 6 nM
